molecular target: CYP3A4 (Homo sapiens, UniProt P08684); construct: A system of 100 μL human liver microsomes; from tissue; host or cells: human liver microsomes; test: Direct inhibition (DI) of CYP3A4 in human liver microsomes; format: in vitro ADME; details: human liver microsomes 0.2 mg/mL, 10 μM compound, probe Midazolam, read-out: Direct inhibition (DI) 3A4 (Midazolam)
Sequence (P08684 whole entry): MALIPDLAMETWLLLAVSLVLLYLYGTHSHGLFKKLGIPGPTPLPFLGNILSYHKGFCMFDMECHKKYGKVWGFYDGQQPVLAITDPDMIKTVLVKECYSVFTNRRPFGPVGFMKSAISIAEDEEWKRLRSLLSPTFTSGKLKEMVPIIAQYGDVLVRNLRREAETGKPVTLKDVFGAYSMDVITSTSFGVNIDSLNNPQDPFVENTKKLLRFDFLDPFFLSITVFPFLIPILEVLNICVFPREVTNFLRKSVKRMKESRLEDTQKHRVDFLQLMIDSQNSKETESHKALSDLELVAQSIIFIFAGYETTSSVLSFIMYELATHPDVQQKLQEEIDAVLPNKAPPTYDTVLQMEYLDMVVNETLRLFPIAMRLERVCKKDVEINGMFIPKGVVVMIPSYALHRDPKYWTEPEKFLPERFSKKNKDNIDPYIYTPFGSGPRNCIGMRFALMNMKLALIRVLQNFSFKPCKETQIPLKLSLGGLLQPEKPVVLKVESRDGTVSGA
readout_name: inhibition at 20 min, 10 µM (%)

{"columns": ["compound", "experimental_target", "result_unit", "inhibition at 20 min, 10 µM"],
 "data": [
  ["Cc1cc(Nc2ncnc3ccc(NC(=O)/C=C/[C@H]4CCCN4C)cc23)ccc1Oc1ccn2ncnc2c1 [Final product of Embodiment 20]", "CYP3A4 (Homo sapiens, UniProt P08684)", "%", 0],
  ["CCOc1cc2ncnc(Nc3ccc(Oc4cc5nncn5cn4)c(C)c3)c2cc1NC(=O)/C=C/[C@H]1CCCN1C [Final product of Embodiment 18]", "CYP3A4 (Homo sapiens, UniProt P08684)", "%", 12],
  ["Cc1cc(Nc2ncnc3ccc(NC(=O)/C=C/[C@H]4CCCN4)cc23)ccc1Oc1ccn2ncnc2c1 [Final product of Embodiment 19]", "CYP3A4 (Homo sapiens, UniProt P08684)", "%", 16],
  ["C=CC(=O)NC1CCC=C(c2ccc3ncnc(Nc4ccc(Oc5cc6nncn6cn5)c(C)c4)c3c2)C1 (stereo not drawn) [Final product of Embodiment 1]", "CYP3A4 (Homo sapiens, UniProt P08684)", "%", 91],
  ["CCOc1cc2ncnc(Nc3ccc(Oc4ccn5ncnc5c4)c(C)c3)c2cc1NC(=O)/C=C/[C@H]1CCCN1C [Final product of Embodiment 22]", "CYP3A4 (Homo sapiens, UniProt P08684)", "%", 12],
  ["CCOc1cc2ncnc(Nc3ccc(Oc4ccn5ncnc5c4)c(C)c3)c2cc1NC(=O)/C(F)=C/[C@H]1CCCN1C [Final product of Embodiment 45]", "CYP3A4 (Homo sapiens, UniProt P08684)", "%", 6],
  ["Cc1cc(Nc2ncnc3ccc(NC(=O)/C(F)=C\\[C@H]4CCCN4C)cc23)ccc1Oc1ccn2ncnc2c1 [Final product of Embodiment 40]", "CYP3A4 (Homo sapiens, UniProt P08684)", "%", 3],
  ["C=CC(=O)N[C@@H]1CCCN(c2ccc3ncnc(Nc4ccc(Oc5cc6nncn6cn5)c(C)c4)c3c2)C1 [Final product of Embodiment 3]", "CYP3A4 (Homo sapiens, UniProt P08684)", "%", 54]
]}

[P] CCOc1cc2ncc(C#N)c(Nc3ccc(Oc4cc5nncn5cn4)c(C)c3)c2cc1NC(=O)/C=C/[C@H]1CCCN1C [Final product of Embodiment 33]
[Q] C=CC(=O)N1CCC(c2ccc3ncnc(Nc4ccc(Oc5cc6nncn6cn5)c(C)c4)c3c2)CC1 [Final product of Embodiment 4]
Incoming: I'd appreciate it if you could identify which of P and Q has the greater inhibition at 20 min, 10 µM. Indicate your choice by writing its label.
Outgoing: Q
